Parameter: TGI. Scope: all listed entries.
System: DMS 273 small cell lung
Assay overview: NCI tumour cell line growth inhibition, 48 h

| Molecule | TGI |
| --- | --- |
| N#CC(C(=N/NC(N)=S)/C(=N\NC(N)=S)C(C#N)c1ccccc1)c1ccccc1 (stereo not given) | > 10 µM |
| COC(=O)c1cc(Cl)ccc1NC(=O)C1CCCCC1 | > 100 µM |
| COC(=O)C(=O)C(C(=O)C(=O)Nc1ccc([N+](=O)[O-])cc1C#N)c1nc2ccc([N+](=O)[O-])cc2[nH]c1=O (stereo not given) | > 100 µM |
| CCCC(=O)C(CC)/C(CCC(=O)N(Cc1ccccc1)Cc1ccccc1)=N/NC(=O)C[N+](C)(C)C (stereo not given) | > 100 µM |
| NC(CCc1nc(-c2ccccc2)cs1)C(=O)O (stereo not given) | > 100 µM |
| CC(=O)N1C(=O)C(=O)c2cc(Cl)ccc21 | > 100 µM |
| C#CCCCCC#CC1CCCC1C1=CC(=O)c2ccccc21 (stereo not given) | 11.9 µM |
| C=CCCC12CCCC(=O)C1Sc1ccc3ccccc3c12 (stereo not given) | 23.6 µM |
| COc1ccccc1OCc1nnc(SCC(=O)O)n1-c1ccccc1 | > 100 µM |
| O=C(Cc1ccccc1)NN1C(=O)C(Cl)C1c1cc(Br)cc(Br)c1O (stereo not given) | 65.2 µM |

---

Tested on: CCRF-CEM leukemia
Assay overview: NCI tumour cell line growth inhibition, 48 h

| Molecule | TGI |
| --- | --- |
| Cc1ccc2c(c1)C(=O)C1(C2)Cc2ccc(C)cc2C1=O | > 100 µM |
| O=C(O/N=C1/CCC/C1=C\c1ccccc1)c1ccc(Cl)cc1 | > 100 µM |
| O=[N+]([O-])/C(Cl)=C(\Sc1ccccc1)C(Cl)=C(Cl)Cl | 0.667 µM |
| C=CC1(C)/C(=N\O)C(C)(CC)C(=O)N1O (stereo unspecified) | > 100 µM |
| COc1cc2c(cc1OC)C(C1(O)CCCCC1)NCC2 (stereo unspecified) | > 100 µM |
| C/C(CC(=O)Nc1ccc(C)cc1)=N\NC(N)=S | > 100 µM |

---

Tested on: DU-145 prostate
Assay overview: NCI tumour cell line growth inhibition, 48 h
Parameter measured: TGI (µM)

| Molecule | System tested | Bound type | Observed |
| --- | --- | --- | --- |
| O=c1oc2ccccc2c(O)c1C(c1ccc([N+](=O)[O-])cc1)c1c(O)c2ccccc2oc1=O | DU-145 prostate | > | 100 |
| COc1cc(C)c(N(C)C(=O)CN(C)C)cc1Nc1nc(Nc2cccc(F)c2C(N)=O)c2cc[nH]c2n1 | DU-145 prostate | > | 25 |
| CC(C)NCCCNC1=C(Cl)C(=O)c2ccccc2C1=O | DU-145 prostate | = | 3.49 |
| O=C(O)C1(C(=O)O)CCN(S(=O)(=O)c2ccccc2)CC1 | DU-145 prostate | > | 100 |
| COc1cccc2c1C(=O)c1c(O)c3c(c(O)c1C2=O)C[C@@](O)(C(=O)COC(=O)c1cccnc1)C[C@@H]3OC1CC(N)C(O)C(C)O1 (some centres undefined) | DU-145 prostate | = | 14.1 |
| CCc1nc2cc(/C=C/C(=O)NO)c(F)cc2c(=O)n1CCc1ccccc1 | DU-145 prostate | = | 10.5 |
| CCOC(=O)c1c(SCC#N)n(-c2ccccc2)c(=S)n(-c2ccccc2)c1=O | DU-145 prostate | > | 100 |
| COc1ccc(-n2nc(C)c3c(Nc4ccc(NC(=O)Nc5cc(C(F)(F)F)ccc5F)cc4)ncnc32)cc1 | DU-145 prostate | > | 100 |
| Fc1ccc(C(OCCN2CC3CC2CN3CCCc2ccccc2)c2ccc(F)cc2)cc1 (centres undefined) | DU-145 prostate | = | 24.3 |
